Hello, the source for this data is patent US20080027042A1, in case you need it.

test system: Human cervical cancer cells (HeLa S3); test: Effect by combined use of drugs in cells (with paclitaxel), WST-8 method; type: cell-based; conditions: Homo sapiens, HeLa S3, 72 h, HeLa S3, compound 0.3 μM alone, three days; read-out: Cell growth inhibitory effect by sole administration of the compound of Example (%)
Each entry below lists one item and its recorded inhibition at 0.3 µM value.

Field: example entries. Status: answers known.
O=C(c1cccc(Cl)c1Cl)N1CCN(Cc2cccc(Nc3nccs3)n2)CC1 = 19.6%
O=C(Cc1ccc(Cl)cc1)N1CCN(Cc2cccc(Nc3ncc(Cl)s3)n2)CC1.O=C(O)C(F)(F)F [Example 77, trifluoroacetate] = 2.2%
Cc1cc(Nc2cccc(CN3CCN(C(=O)c4cccc(Br)c4F)CC3)n2)n[nH]1 = 0%
O=C(c1cccc(Cl)c1F)N1CCN(Cc2cccc(Nc3ncc(Cl)s3)n2)CC1 = 27.1%
O=C(c1cccc(C(F)(F)F)c1F)N1CCN(Cc2cncc(Nc3cc[nH]n3)n2)CC1 = 7.1%
Cc1cc(Nc2cccc(CN3CCN(C(=O)c4cccc(C(F)(F)F)c4F)CC3)n2)n[nH]1 = 0%
N#Cc1cc(CN2CCN(C(=O)c3cccc(Cl)c3F)CC2)nc(Nc2nccs2)c1 = 6.3%
Cc1cc(Nc2cncc(CN3CCN(C(=O)c4cccc(Cl)c4F)CC3)n2)n[nH]1 = 6.5%

Next item in the queue.
[ask] Which measured inhibition at 0.3 µM value corresponds to O=C(c1cccc(Cl)c1Cl)N1CCN(Cc2cccc(Nc3cc[nH]n3)n2)CC1 ?
[reply] 0%
